Below is a list of entries, each paired with its recorded Ratio EC50 value.
Test system: HT-29
ASSAY PROCEDURE: Selectivity index, ratio of EC50 for mouse NIH/3T3 cells to EC50 for human HT-29 cells
Format: functional
Simply state the number, no unit and no words.

Use these answered entries as a reference point.
CC1(C)CC[C@]2(C(=O)NCc3cn(Cc4ccc([N+](=O)[O-])cc4)nn3)CC[C@]3(C)C(=CC[C@@H]4[C@@]5(C)CC[C@H](O)[C@@](C)(CO)[C@@H]5CC[C@]43C)[C@@H]2C1    1.5
CC1(C)CC[C@]2(C(=O)OCc3cn(Cc4ccc(F)cc4)nn3)CC[C@]3(C)C(=CC[C@@H]4[C@@]5(C)CC[C@H](O)[C@@](C)(CO)[C@@H]5CC[C@]43C)[C@@H]2C1    0.8

Look up and report measured Ratio EC50 for this entry: `CC1(C)CC[C@]2(C(=O)NCc3cn(Cc4ccccc4Cl)nn3)CC[C@]3(C)C(=CC[C@@H]4[C@@]5(C)CC[C@H](O)[C@@](C)(CO)[C@@H]5CC[C@]43C)[C@@H]2C1` 1

Sourced from ChEMBL document CHEMBL3784962
